B1: glmS ribozyme (parent)
chain: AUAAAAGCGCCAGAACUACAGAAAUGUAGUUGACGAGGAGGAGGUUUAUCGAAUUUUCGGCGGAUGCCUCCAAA

Variants of: B1
Assay: kcat; higher = faster cleavage; RNA array
Conditions: with glucosamine-6-phosphate
Variants at the floor of the assay were thinned out.
property: log10 kcat (log10 of the value in s⁻¹)
Friendly reminder: values = log10 of kcat, unit s⁻¹.

variant.descriptor: G32U U54C
assay.result: -3.02
//
variant.descriptor: G29U C50A G66U
assay.result: -4.85
//
variant.descriptor: U30C G32C
assay.result: -3.40
//
variant.descriptor: A6U A39U
assay.result: -3.98

// query Need log10 kcat of U47G U49G , thanks.
// result -4.06

// query And then G13C A53U , what is it?
// result -3.86

// query Please answer likewise for A14G G59A
// result -3.53

// query Further, for U31G A39U ?
// result -1.87
